Would you kindly list percent degradation of TPM3-TRKA protein at 0.01 µM for each of these molecules?
- MEASURED_TARGET: TPM3-TRKA fusion protein (Homo sapiens, UniProt P04629)
- Construct: The resulted chimeric proteins always retain the kinase domain of TRK proteins; TPM3 (fusion partner, N-terminal part of tropomyosin alpha-3, P06753); endogenous in cells; host or cells: KM12 colon cancer cells; the other entry of the earlier key: TPM3 (P06753, Tropomyosin alpha-3 chain)
- Sequence (P04629 with tags, fused parts or gaps): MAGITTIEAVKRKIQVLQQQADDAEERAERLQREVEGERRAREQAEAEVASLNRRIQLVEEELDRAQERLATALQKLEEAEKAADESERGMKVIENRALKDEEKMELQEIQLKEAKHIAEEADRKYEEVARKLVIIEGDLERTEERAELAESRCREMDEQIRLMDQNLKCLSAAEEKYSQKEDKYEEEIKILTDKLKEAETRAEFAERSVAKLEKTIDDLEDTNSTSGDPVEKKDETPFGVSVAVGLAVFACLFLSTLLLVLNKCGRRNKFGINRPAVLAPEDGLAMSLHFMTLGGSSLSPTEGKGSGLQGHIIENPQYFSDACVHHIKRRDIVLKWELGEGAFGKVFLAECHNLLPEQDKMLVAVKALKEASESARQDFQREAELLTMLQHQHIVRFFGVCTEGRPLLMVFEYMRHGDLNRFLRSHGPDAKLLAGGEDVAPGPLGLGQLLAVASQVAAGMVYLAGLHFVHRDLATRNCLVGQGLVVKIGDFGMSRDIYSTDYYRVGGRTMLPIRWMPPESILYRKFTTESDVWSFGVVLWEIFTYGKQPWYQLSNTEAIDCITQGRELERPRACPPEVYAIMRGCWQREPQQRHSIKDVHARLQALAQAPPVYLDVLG
- MEASUREMENT_DESCRIPTION: TPM3-TRKA fusion protein levels in KM12 cells (Western blot)
- Assay type: cell-based
- MEASUREMENT_PARAMETERS: 16 h; TPM3-TRKA degradation in KM12 cells at 10 nM compound, category of percentage degradation; read-out: Degradation (at 10 nM)

Input O=C1CCC(N2C(=O)c3ccc(CN4CC(N5CCN(c6cccc(-c7cnc8ccc(N9CCC[C@@H]9c9cccc(F)c9)nn78)n6)CC5)C4)cc3C2=O)C(=O)N1 (stereo partly shown) . Output percent degradation of TPM3-TRKA protein at 0.01 µM: > 80%

Input `O=C1CC[C@H](N2C(=O)c3ccc(N4CC(N5CCN(c6ccc(C(=O)Nc7n[nH]c8ccc(Cc9cc(F)cc(F)c9)cc78)c(NC7CCOCC7)c6)CC5)C4)cc3C2=O)C(=O)N1` . Output percent degradation of TPM3-TRKA protein at 0.01 µM: > 80%

Input Cn1c(=O)n(C2CCC(=O)NC2=O)c2ccc(NCCCN3CCN(c4ccc(C(=O)Nc5n[nH]c6ccc(Cc7cc(F)cc(F)c7)cc56)c(NC5CCOCC5)c4)CC3)cc21 (stereo not shown) . Output percent degradation of TPM3-TRKA protein at 0.01 µM: > 80%

Input O=C1CCC(N2Cc3cc(C#CC(=O)N4CCN(c5cccc(-c6cnc7ccc(N8CCC[C@@H]8c8cccc(F)c8)nn67)n5)CC4)ccc3C2=O)C(=O)N1 (stereo partly shown) . Output percent degradation of TPM3-TRKA protein at 0.01 µM: 50 to 80%

Input O=C1CCC(N2C(=O)c3cccc(NCCOCCC(=O)N4CCN(c5ccc(C(=O)Nc6n[nH]c7ccc(Cc8cc(F)cc(F)c8)cc67)c(NC6CCOCC6)c5)CC4)c3C2=O)C(=O)N1 (stereo not shown) . Output percent degradation of TPM3-TRKA protein at 0.01 µM: > 80%

Input O=C(CN1CCN(c2ccc(C(=O)Nc3n[nH]c4ccc(Cc5cc(F)cc(F)c5)cc34)c(NC3CCOCC3)c2)CC1)NCCCNc1ccc2c(c1)C(=O)N(C1CCC(=O)NC1=O)C2=O (stereo not shown) . Output percent degradation of TPM3-TRKA protein at 0.01 µM: > 80%

Input O=C1CCC(n2nnc3cccc(N4CC(CCN5CCN(c6ccc(C(=O)Nc7n[nH]c8ccc(Cc9cc(F)cc(F)c9)cc78)c(NC7CCOCC7)c6)CC5)C4)c3c2=O)C(=O)N1 (stereo not shown) . Output percent degradation of TPM3-TRKA protein at 0.01 µM: 50 to 80%

Input `Cc1ncsc1-c1ccc(CNC(=O)[C@@H]2C[C@@H](O)CN2C(=O)[C@@H](NC(=O)CCOCCC(=O)N2CCN(c3ccc(C(=O)Nc4n[nH]c5ccc(Cc6cc(F)cc(F)c6)cc45)c(NC4CCOCC4)c3)CC2)C(C)(C)C)cc1` . Output percent degradation of TPM3-TRKA protein at 0.01 µM: < 50%

Input O=C(CN1CCN(c2cccc(-c3cnc4ccc(N5CCC[C@@H]5c5cccc(F)c5)nn34)n2)CC1)NCCOCCOCCNc1ccc2c(c1)C(=O)N(C1CCC(=O)NC1=O)C2=O (stereo partly shown) . Output percent degradation of TPM3-TRKA protein at 0.01 µM: > 80%

Input O=C1CCC(N2C(=O)c3ccc(NCCOCCOCCOCCOCCOCCC(=O)N4CCN(c5cccc(-c6cnc7ccc(N8CCC[C@@H]8c8cccc(F)c8)nn67)n5)CC4)cc3C2=O)C(=O)N1 (stereo partly shown) . Output percent degradation of TPM3-TRKA protein at 0.01 µM: > 80%

Input O=C(CN1CCN(c2cccc(-c3cnc4ccc(N5CCC[C@@H]5c5cccc(F)c5)nn34)n2)CC1)NCCOCCOCCOCCNc1cccc2c1C(=O)N(C1CCC(=O)NC1=O)C2=O (stereo partly shown) . Output percent degradation of TPM3-TRKA protein at 0.01 µM: > 80%

Input O=C1CCC(n2c(=O)n(CCN3CCN(c4cccc(-c5cnc6ccc(N7CCC[C@@H]7c7cccc(F)c7)nn56)n4)CC3)c3ccccc32)C(=O)N1 (stereo partly shown) . Output percent degradation of TPM3-TRKA protein at 0.01 µM: 50 to 80%

Input O=C1CCC(N2Cc3cc(C#CCN4CCN(c5ccc(C(=O)Nc6n[nH]c7ccc(Cc8cc(F)cc(F)c8)cc67)c(NCCF)c5)CC4)ccc3C2=O)C(=O)N1 (stereo not shown) . Output percent degradation of TPM3-TRKA protein at 0.01 µM: > 80%

* * *

- MEASURED_TARGET: TPM3-TRKA fusion protein (Homo sapiens, UniProt P04629)
- Construct: The resulted chimeric proteins always retain the kinase domain of TRK proteins; TPM3 (fusion partner, N-terminal part of tropomyosin alpha-3, P06753); endogenous in cells; host or cells: KM12 colon cancer cells; the other entry of the earlier key: TPM3 (P06753, Tropomyosin alpha-3 chain)
- MEASUREMENT_DESCRIPTION: TPM3-TRKA fusion protein levels in KM12 cells (Western blot)
- Format: cell-based
- MEASUREMENT_PARAMETERS: 16 h; TPM3-TRKA degradation in KM12 cells at 10 nM compound, category of percentage degradation; read-out: Degradation (at 10 nM)
MEASURE: percent degradation of TPM3-TRKA protein at 0.01 µM

Assay TPM3-TRKA fusion protein (Homo sapiens, UniProt P04629), sample O=C1CCC(N2C(=O)c3ccc(CN4CCC(N5CCN(c6ccc(C(=O)Nc7n[nH]c8ccc(Cc9cc(F)cc(F)c9)cc78)c(NC7CCOCC7)c6)CC5)CC4)cc3C2=O)C(=O)N1 (stereo not drawn) [TR-281] , percent degradation of TPM3-TRKA protein at 0.01 µM read: > 80%

Assay TPM3-TRKA fusion protein (Homo sapiens, UniProt P04629), sample O=C1CCC(n2nnc3cccc(N4CC(CN5CCN(c6ccc(C(=O)Nc7n[nH]c8ccc(Cc9cc(F)cc(F)c9)cc78)c(NC7CCOCC7)c6)CC5)C4)c3c2=O)C(=O)N1 (stereo not drawn) [TR-326] , percent degradation of TPM3-TRKA protein at 0.01 µM read: 50 to 80%

Assay TPM3-TRKA fusion protein (Homo sapiens, UniProt P04629), sample O=C1CCC(N2C(=O)c3ccc(NCCOCCC(=O)N4CCN(c5ccc(C(=O)Nc6n[nH]c7ccc(Cc8cc(F)cc(F)c8)cc67)c(NC6CCOCC6)c5)CC4)cc3C2=O)C(=O)N1 (stereo not drawn) [TR-143] , percent degradation of TPM3-TRKA protein at 0.01 µM read: > 80%

* * *

Would you kindly list percent degradation of TPM3-TRKA protein at 0.01 µM for each of these compounds?
- MEASURED_TARGET: TPM3-TRKA fusion protein (Homo sapiens)
- Construct: The resulted chimeric proteins always retain the kinase domain of TRK proteins; TPM3 (fusion partner, N-terminal part of tropomyosin alpha-3, P06753); endogenous in cells; host or cells: KM12 colon cancer cells; the other entry of the earlier key: TPM3 (P06753, Tropomyosin alpha-3 chain)
- MEASUREMENT_DESCRIPTION: TPM3-TRKA fusion protein levels in KM12 cells (Western blot)
- Type: cell-based
- MEASUREMENT_PARAMETERS: 16 h; TPM3-TRKA degradation in KM12 cells at 10 nM compound, category of percentage degradation; read-out: Degradation (at 10 nM)

Input O=C1CCC(N2C(=O)c3ccc(CCN4CCN(c5cccc(-c6cnc7ccc(N8CCC[C@@H]8c8cccc(F)c8)nn67)n5)CC4)cc3C2=O)C(=O)N1 (some centres unmarked) . Output percent degradation of TPM3-TRKA protein at 0.01 µM: > 80%

Input Cc1nc2cccc(N3CC(CN4CCN(c5ccc(C(=O)Nc6n[nH]c7ccc(Cc8cc(F)cc(F)c8)cc67)c(NC6CCOCC6)c5)CC4)C3)c2c(=O)n1C1CCC(=O)NC1=O (centres unmarked) . Output percent degradation of TPM3-TRKA protein at 0.01 µM: 50 to 80%

Input Cn1c(=O)n(C2CCC(=O)NC2=O)c2cccc(OCCN3CCN(c4cccc(-c5cnc6ccc(N7CCC[C@@H]7c7cccc(F)c7)nn56)n4)CC3)c21 (some centres unmarked) . Output percent degradation of TPM3-TRKA protein at 0.01 µM: < 50%

Input O=C(CN1CCN(c2cccc(-c3cnc4ccc(N5CCC[C@@H]5c5cccc(F)c5)nn34)n2)CC1)NCCOCCNc1cccc2c1C(=O)N(C1CCC(=O)NC1=O)C2=O (some centres unmarked) . Output percent degradation of TPM3-TRKA protein at 0.01 µM: 50 to 80%

Input O=C(CN1CCN(c2cccc(-c3cnc4ccc(N5CCC[C@@H]5c5cccc(F)c5)nn34)n2)CC1)NCCOCCOCCOCCOCCNc1ccc2c(c1)C(=O)N(C1CCC(=O)NC1=O)C2=O (some centres unmarked) . Output percent degradation of TPM3-TRKA protein at 0.01 µM: > 80%

Input `Cc1ncsc1-c1ccc(CNC(=O)[C@@H]2C[C@@H](O)CN2C(=O)[C@@H](NC(=O)CCOCCOCCOCCOCCC(=O)N2CCN(c3ccc(C(=O)Nc4n[nH]c5ccc(Cc6cc(F)cc(F)c6)cc45)c(NC4CCOCC4)c3)CC2)C(C)(C)C)cc1` . Output percent degradation of TPM3-TRKA protein at 0.01 µM: < 50%

Input O=C1CCC(N2C(=O)c3ccc(N4CC(CN5CCN(c6ccc(C(=O)Nc7n[nH]c8ccc(Cc9cc(F)cc(F)c9)cc78)c(NC7CCOCC7)c6)CC5)C4)cc3C2=O)C(=O)N1 (centres unmarked) . Output percent degradation of TPM3-TRKA protein at 0.01 µM: > 80%

Input O=C(CN1CCN(c2ccc(C(=O)Nc3n[nH]c4ccc(Cc5cc(F)cc(F)c5)cc34)c(NC3CCOCC3)c2)CC1)NCCOCCOCCOCCOCCNc1cccc2c1C(=O)N(C1CCC(=O)NC1=O)C2=O (centres unmarked) . Output percent degradation of TPM3-TRKA protein at 0.01 µM: > 80%

Input O=C(CN1CCN(c2cccc(-c3cnc4ccc(N5CCC[C@@H]5c5cccc(F)c5)nn34)n2)CC1)NCCOCCOCCOCCNc1ccc2c(c1)C(=O)N(C1CCC(=O)NC1=O)C2=O (some centres unmarked) . Output percent degradation of TPM3-TRKA protein at 0.01 µM: > 80%

Input `Cc1ncsc1-c1ccc(CNC(=O)[C@@H]2C[C@@H](O)CN2C(=O)[C@@H](NC(=O)CCCCCC(=O)N2CCN(c3ccc(C(=O)Nc4n[nH]c5ccc(Cc6cc(F)cc(F)c6)cc45)c(NC4CCOCC4)c3)CC2)C(C)(C)C)cc1` . Output percent degradation of TPM3-TRKA protein at 0.01 µM: > 80%

Input Cn1c(=O)n(C2CCC(=O)NC2=O)c2cccc(NCCN3CCN(c4cccc(-c5cnc6ccc(N7CCC[C@@H]7c7cccc(F)c7)nn56)n4)CC3)c21 (some centres unmarked) . Output percent degradation of TPM3-TRKA protein at 0.01 µM: > 80%
